pKa: recorded values
test: pK-values (approximate); type: physicochemical; conditions: pK3, third lowest value of the list

Field: example entries. Status: answers known.
[[record]]
compound = "O=P(O)(O)CN[C@H]1[C@@H](O)[C@@H](NCP(=O)(O)O)[C@@H](O)[C@@H](NCP(=O)(O)O)[C@H]1O [Example 11]"
measured_metric = "pKa"
result = "~6.5"

[[record]]
compound = "O=C(O)CCN[C@H]1[C@@H](O)[C@@H](NCCC(=O)O)[C@@H](O)[C@@H](NCCC(=O)O)[C@H]1O [Example 12]"
measured_metric = "pKa"
result = "~9.7"


As a next step, examine the compound that follows.
Input: Supply reported pKa belonging to this compound: N#CCCN[C@H]1[C@@H](O)[C@@H](NCCC#N)[C@@H](O)[C@@H](NCCC#N)[C@H]1O
Output: ~6.3

###

experiment: pK-values (approximate); assay type: physicochemical; details: pK4, fourth lowest value of the list
Measured Metric: pKa

[[record]]
smiles_notation = "O=P(O)(O)CN[C@H]1[C@@H](O)[C@@H](NCP(=O)(O)O)[C@@H](O)[C@@H](NCP(=O)(O)O)[C@H]1O"
measured_metric = "pKa"
result = "~7"


As a next step, examine the compound that follows.
Input: Supply reported pKa belonging to this compound: O=C(O)CN[C@H]1[C@@H](O)[C@@H](NCC(=O)O)[C@@H](O)[C@@H](NCC(=O)O)[C@H]1O
Output: ~5.7

###

assay: pK-values (approximate); assay type: physicochemical; settings: three lowest pK-values
Measured Metric: pKa

Input: Supply reported pKa belonging to this compound: O=C(O)CN[C@H]1[C@@H](O)[C@@H](NCC(=O)O)[C@@H](O)[C@@H](NCC(=O)O)[C@H]1O
Output: < 3

###

assay: pK-values (approximate); format: physicochemical; details: highest pK of nitrile intermediate
Measured Metric: pKa

Input: Supply reported pKa belonging to this compound: N#CCN[C@H]1[C@@H](O)[C@@H](NCC#N)[C@@H](O)[C@@H](NCC#N)[C@H]1O
Output: ~6.5

###

test: pK-values (approximate); type: physicochemical; conditions: pK1, lowest value of the list
pKa: recorded values

[[record]]
smiles_notation = "O=P(O)(O)CN[C@H]1[C@@H](O)[C@@H](NCP(=O)(O)O)[C@@H](O)[C@@H](NCP(=O)(O)O)[C@H]1O"
result = "~5.2"

[[record]]
smiles_notation = "O=C(O)CCN[C@H]1[C@@H](O)[C@@H](NCCC(=O)O)[C@@H](O)[C@@H](NCCC(=O)O)[C@H]1O"
result = "~6.2"


Input: Supply reported pKa belonging to this compound: N#CCCN[C@H]1[C@@H](O)[C@@H](NCCC#N)[C@@H](O)[C@@H](NCCC#N)[C@H]1O
Output: ~3

###

assay: pK-values (approximate); format: physicochemical; settings: pK6, sixth lowest value of the list
pKa: recorded values

[[record]]
molecule = "O=C(O)CN[C@H]1[C@@H](O)[C@@H](NCC(=O)O)[C@@H](O)[C@@H](NCC(=O)O)[C@H]1O [Example 13]"
measured_metric = "pKa"
result = "~8.9"


As a next step, examine the molecule that follows.
Input: Supply reported pKa belonging to this molecule: O=P(O)(O)CN[C@H]1[C@@H](O)[C@@H](NCP(=O)(O)O)[C@@H](O)[C@@H](NCP(=O)(O)O)[C@H]1O [Example 11]
Output: ~9.5
